Reference source for all entries: ChEMBL document CHEMBL1150899

- Test system: Plasmodium falciparum
- METHOD NOTES: Antiplasmodial activity against chloroquine-resistant Plasmodium falciparum K1 infected human erythrocytes as [3H]hypoxanthine uptake
- Type: functional, organism-based
Form field: IC50 (one value per entry).
Answer with a number only, understood to be in µg/mL.

1. CC1=C(O)C(=O)C=C2C1=CC=C1[C@@]2(C)CC[C@@]2(C)[C@@H]3C[C@](C)(C(=O)O)CC[C@]3(C)CC[C@]12C [CELASTROL] = 0.181
2. CC1=C(O)C(=O)C=C2C1=CC=C1[C@@]2(C)CC[C@@]2(C)[C@@H]3C[C@H](CO)CC[C@]3(C)CC[C@]12C [ISOIGUESTEROL] = 0.0229
3. COC(=O)[C@]1(C)CC[C@]2(C)CC[C@]3(C)C4=CC=C5C(=CC(=O)C(O)=C5C)[C@]4(C)CC[C@@]3(C)[C@@H]2C1 [PRISTIMERIN] = 0.19
4. C=C1CC[C@]2(CO)CC[C@]3(C)C4=CC=C5C(=CC(=O)C(O)=C5C)[C@]4(C)CC[C@@]3(C)[C@@H]2C1 = 0.114
5. C=C1CC[C@]2(C=O)CC[C@]3(C)C4=CC=C5C(=CC(=O)C(O)=C5C)[C@]4(C)CC[C@@]3(C)[C@@H]2C1 = 0.094

Here is the next item to consider.
Problem: Which IC50 value is on record for "C=C1CC[C@]2(C(=O)OC)CC[C@]3(C)C4=CC=C5C(=CC(=O)C(O)=C5C)[C@]4(C)CC[C@@]3(C)[C@@H]2C1" ?
Result: 0.0276
